assay: Mycobacterium tuberculosis growth inhibition, primary screen (AID 1259343); conditions: at 10 µM, hits give high values
Among all 6,200 compounds or so, about 2,900 (47%) were called active. The set was probably picked from earlier hits. The list shows a part of the results.
Definition: the class of an entry is the range in class 0 = under 10%, class 1 = from 10% up to 80%, class 2 = 80% and over that contains its inhibition.

# count of solved cases: 5
compound	assigned.category
COC(=O)C(C)Sc1nc2sc3c(c2c(=O)n1Cc1ccccc1)CCC3 (stereo not given)	class 2
CN(Cc1nc(Cc2ccccc2Cl)no1)C1CCCCC1	class 1
Cc1nc(-n2nc(-c3ccco3)cc2NC(=O)COc2ccc(F)cc2)[nH]c(=O)c1C	class 2
Cc1nc(-n2nc(-c3ccco3)cc2NC(=O)c2c(F)cccc2F)[nH]c(=O)c1C	class 2
O=C(c1ccc2nonc2c1)N1CCCC2(CCCc3ccccc32)C1 (stereo not given)	class 1

// bin(item) where item = O=C(CSC1CCCCC1)NC1CCCC1
class 0

// bin(item) where item = CCCCc1ccc(N=Cc2c(C)c(C#N)c(=O)n(CCCC)c2O)cc1
class 0

* * *

experiment: Mycobacterium tuberculosis growth inhibition, primary screen (AID 1259343); details: at 10 µM, hits give high values
Among all 6,200 compounds or so, about 2,900 (47%) were called active. So high a share suggests a set chosen from earlier hits. The list shows a part of the results.
assay.metric: inhibition (%)
// units = %; emit number, no label

Below are worked cases with known answers.
compound	inhibition / %
Cc1ccccc1N1CCN(Cc2ccc(C#CCO)s2)C(C)C1 (stereo not given)	76.9
CC(C)(C)c1cc(=O)n2[nH]cc(-c3ccc(Cl)cc3)c2n1	32.1
COc1cc(C(=O)NS(=O)(=O)c2ccc(Cl)cc2)ccc1OC(C)C	28.1
O=C(NS(=O)(=O)c1cncc(Br)c1)c1ccc(OC(F)(F)F)cc1	18.9

Let's switch to this compound now.
Fill in the blank: the reported inhibition of Cc1ccc(-c2c[nH]n3c(=O)cc(C(C)(C)C)nc23)cc1 is ____.
98.8

* * *

assay: Mycobacterium tuberculosis growth inhibition, primary screen (AID 1259343); settings: at 10 µM, hits give high values
The whole screen tested about 6,200 compounds, of which about 2,900 (47%) were called active. The set was probably picked from earlier hits. The list shows a part of the results.
Decision: inhibition compared against 20%; not below it gives Criterion met, below it gives Criterion not met.

molecule	assigned.category
O=C(Cc1cc(-c2cc3ccccc3o2)on1)Nc1ccon1	Criterion not met
CCCCCCn1c(N2CCN(Cc3ccc(Cl)c(Cl)c3)CC2)nc2c1c(=O)[nH]c(=O)n2C	Criterion not met
CC(=O)c1cc(CN2CCCC(C(=O)Nc3ccc(-c4cscn4)cc3)C2)cs1 (centres undefined)	Criterion met
O=C(c1ccc(Cl)s1)N1CCCC(Nc2ccc3c(c2)OCO3)C1 (centres undefined)	Criterion met
N#Cc1c(Cl)nsc1NCCC1CC2CCC1C2 (centres undefined)	Criterion met
O=C(Cc1cc(-c2cc3ccccc3o2)on1)N1CCCc2ccccc21	Criterion met
CCN(CC)c1cc(-c2ccccc2)nc(SCc2cccc(C(=O)O)c2)n1	Criterion not met
CCOC(=O)CCc1c(C)c2ccc(OCc3ccc(C(=O)OC)cc3)c(C)c2oc1=O	Criterion met
CN(Cc1cc(-c2ccncc2)no1)Cc1ccc(C2CCCCO2)s1 (centres undefined)	Criterion met
O=C(Cc1cc(-c2ccc(F)cc2)on1)N1CCCc2ccccc21	Criterion met

In plain terms: is recorded inhibition at least 20% for O=C(CNc1ccc(Cl)cc1F)N1CCN(c2ccccc2)CC1 ?
Criterion not met

In plain terms: is recorded inhibition at least 20% for COc1cccc(-c2cc(CC(=O)N3c4ccccc4CC3C)no2)c1 (centres undefined) ?
Criterion met

In plain terms: is recorded inhibition at least 20% for COc1cccc(-c2noc(CSc3ncnc4sccc34)n2)c1 ?
Criterion met

In plain terms: is recorded inhibition at least 20% for N#Cc1c(Cl)nsc1NC1CCSc2c(F)cccc21 (centres undefined) ?
Criterion not met

In plain terms: is recorded inhibition at least 20% for c1ccc(CSc2nn3cc(-c4ccccc4)nc3s2)cc1 ?
Criterion not met

In plain terms: is recorded inhibition at least 20% for CCCCc1ccc(-n2c(C)c(C)n3c4c(=O)n(CCCO)c(=O)n(C)c4nc23)cc1 ?
Criterion met

Where do these numbers come from? They come from PubChem BioAssay AID1259343.
